Biological target: T1, AAV8 (adeno-associated virus serotype 8)
T1 construct: also called adeno-associated virus serotype 8
Assay: SPR, AAV on CM5 chip;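 further: surface plasmon resonance with AAV amine-coupled to the chip as ligand, nanobodies injected as analyte over a concentration series, rate constants and affinity fitted from binding curves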
OUTCOME_MEASURE: Kd (nM)

INSERT INTO assay_data (binder, outcome_measure, numeric_readout) VALUES
  ('A4-101 (VHH) VHH: VQLQESGGGLVQPGGSLRLSCAASGSRFSINIMGWYRQAPGKQRELVASVTRGGTTNYADSVKGRFTISRDNPKNTIYLQMNSLRPEDTAVYYCHVDEIRESTWTTSNLWGQGTQVTVSS', 'Kd', 162),
  ('A4-114 (VHH) VHH: VQLQESGGGLVQTGGSLRLSCVASGSIFSINTVGWYRQAPGKQRELVATVTRAGSTWYAGSVKGRFTISRDNTKNTIYLQMNSLRPEDTAVYYCHVDELRQSTWTTSNLWGQGTQVTVSS', 'Kd', 1.81),
  ('A4-102 (VHH) VHH: VQLQESGGGLVQPGGSLRLSCAASGSHFTINSVGWYRQAPGKQRELVAPVTRGGTTNYADFVKGRFTISRDNAKNTVYLQMNSLRPEDTAVYYCHVDELRDSSWTTSNLWGQGTQVTVSS', 'Kd', 7.86),
  ('A4-106 (VHH) VHH: VQLQESGGGLVQPGGSLRLSCIASGSIFSLNAMGWYRQAPGKQRELVATITSGGSTNYADSVKGRFTISRDNAKNTAYLQMNNLQPEDTAVYYCHVDEVRESIWTTSNLWGQGTQVTVSS', 'Kd', 16),
  ('A4-103 (VHH) VHH: VQLQESGGGLVQPGGSLRLSCAASGSIFSLNAMGWYRQAPGKQRELVATITRGGSTNYADSVKGRFTISRDNAKNTVYLQMNSLRPEDTAVYYCHVDEVRESIWTTSNLWGQGTQVTVSS', 'Kd', 35.1),
  ('A4-105 (VHH) VHH: VQLQESGGGLVQPGGSLRLSCAASGSIFSLNAMGWYRQAPGKQRELVATITSGGSTNYADSVKGRFTISRDNAKNTAYLQMNNLQPEDTAVYYCHVDEVRESIWTTSNLWGQGTQVTVSS', 'Kd', 21.7),
  ('A4-110 (VHH) VHH: VQLQESGGGLVQPGGSLRLSCFASGTNFSINVVGWYRQAPGKQRELVATITRGGSTNYAESVKGRFTISRDNAKNTVYLQMNNLRPEDTAVYYCHLDEVRDSSWTTSNLWGQGTQVTVSS', 'Kd', 860),
  ('A4-107 (VHH) VHH: VQLQESGGGLVQPGGSLRLSCIASGSGFSINTVGWYRQAPAKQRELVATLTRGGSTNYADSVKGRFTISRDNPKNTVYLQMNSLRPEDTAVYYCHVDEVRQSSWTTSNIWGQGTQVTVSS', 'Kd', 848),
  ('A4-108 (VHH) VHH: VQLQESGGGLAQPGGSLRLSCLASGSGFSINTMGWYRQAPPKWRELVATVTRGGSTNYAGSVKGRFTISRDNPKNTVYLQMNSLRPEDTAVYYCHLDEVRQSTWTTSNIWGQGTQVTVSS', 'Kd', 7.94),
  ('A4-112 (VHH) VHH: VQLQESGGGLVQTGGSLRLSCIASGSIFSINTVGWYRQAPPKQRELVATVTRAGSTWYAGSVKGRFTISRDNAKNTIYLQMNTLRPEDTAVYYCHVDEVRQSTWTTSNIWGQGTQVTVSS', 'Kd', 1.11);
